- Tested on: Escherichia coli TOP10
- experimental_protocol: shrunken log2 fold change of peptide-encoding DNA abundance (4.5 h post-induction vs induction); higher = less antimicrobial activity (less host growth inhibition)
- conditions: time post-induction: 4.5 h; library: site-saturation at positions 5, 18, 19, 20
Definition: the class of an entry is the range in LOW = under -0.1, MID = from -0.1 up to 0.07, HIGH = 0.07 and over that contains its shrunken log2 fold change.

sequence_code	label
RRIRGRPPRLPRPRPRPDNSPRP	MID
RRIRERPPRLPRPRPRPKKGPRP	LOW
RRIRQRPPRLPRPRPRPMMFPRP	LOW
RRIRYRPPRLPRPRPRPGLAPRP	HIGH
RRIRCRPPRLPRPRPRPIDSPRP	LOW
RRIRQRPPRLPRPRPRPIAGPRP	HIGH
RRIRARPPRLPRPRPRPTKRPRP	HIGH
RRIRPRPPRLPRPRPRPVQTPRP	MID
RRIRERPPRLPRPRPRPLHTPRP	LOW
RRIRGRPPRLPRPRPRPDLSPRP	HIGH
RRIRTRPPRLPRPRPRPDSTPRP	LOW
RRIRDRPPRLPRPRPRPGVPPRP	MID
RRIRWRPPRLPRPRPRPAAQPRP	MID
RRIRYRPPRLPRPRPRPWVSPRP	MID
RRIRIRPPRLPRPRPRPPWQPRP	HIGH
RRIRIRPPRLPRPRPRPCHIPRP	LOW
RRIRRRPPRLPRPRPRPWILPRP	MID

###

Reported shrunken log2 fold change values for the following sequences.
- Test system: Escherichia coli TOP10
- experimental_protocol: shrunken log2 fold change of peptide-encoding DNA abundance (4.5 h post-induction vs induction); higher = less antimicrobial activity (less host growth inhibition)
- conditions: time post-induction: 4.5 h; library: site-saturation at positions 5, 18, 19, 20

sequence_code	system_under_test	shrunken log2 fold change
RRIRKRPPRLPRPRPRPTNIPRP	Escherichia coli TOP10	-0.188
RRIRVRPPRLPRPRPRPFEMPRP	Escherichia coli TOP10	-0.572
RRIRRRPPRLPRPRPRPQELPRP	Escherichia coli TOP10	0.158
RRIRGRPPRLPRPRPRPPEPPRP	Escherichia coli TOP10	0.397
RRIRGRPPRLPRPRPRPLGEPRP	Escherichia coli TOP10	1.08
RRIRKRPPRLPRPRPRPVVEPRP	Escherichia coli TOP10	0.274
RRIRNRPPRLPRPRPRPFGAPRP	Escherichia coli TOP10	0.00377
RRIRHRPPRLPRPRPRPYETPRP	Escherichia coli TOP10	-0.151
RRIRYRPPRLPRPRPRPWRGPRP	Escherichia coli TOP10	0.318
RRIRRRPPRLPRPRPRPGKRPRP	Escherichia coli TOP10	0.363
RRIRVRPPRLPRPRPRPTTHPRP	Escherichia coli TOP10	-0.0858
RRIRWRPPRLPRPRPRPLQFPRP	Escherichia coli TOP10	0.0403
RRIRTRPPRLPRPRPRPSREPRP	Escherichia coli TOP10	0.427
RRIRLRPPRLPRPRPRPRIAPRP	Escherichia coli TOP10	0.317
RRIRMRPPRLPRPRPRPQMNPRP	Escherichia coli TOP10	-0.253
RRIRKRPPRLPRPRPRPEQMPRP	Escherichia coli TOP10	-0.000598
RRIRYRPPRLPRPRPRPWARPRP	Escherichia coli TOP10	-0.116
RRIRLRPPRLPRPRPRPCFGPRP	Escherichia coli TOP10	-0.0493
RRIRLRPPRLPRPRPRPCLKPRP	Escherichia coli TOP10	-0.682

###

- Test system: Escherichia coli TOP10
- experimental_protocol: shrunken log2 fold change of peptide-encoding DNA abundance (4.5 h post-induction vs induction); higher = less antimicrobial activity (less host growth inhibition)
- conditions: time post-induction: 4.5 h; library: site-saturation at positions 5, 18, 19, 20
Rule: shrunken log2 fold change of -0.1 or more gives t; anything lower gives f.

sequence_code	label
RRIRPRPPRLPRPRPRPDHGPRP	t
RRIRWRPPRLPRPRPRPYEEPRP	f
RRIRPRPPRLPRPRPRPFSGPRP	f
RRIRNRPPRLPRPRPRPLNAPRP	f
RRIRPRPPRLPRPRPRPTKCPRP	t
RRIRVRPPRLPRPRPRPYYPPRP	f
RRIRYRPPRLPRPRPRPAPKPRP	t
RRIRYRPPRLPRPRPRPICLPRP	f
RRIRLRPPRLPRPRPRPINLPRP	f
RRIRHRPPRLPRPRPRPFCKPRP	f
RRIRKRPPRLPRPRPRPAMYPRP	t
RRIRWRPPRLPRPRPRPLLIPRP	t
RRIRIRPPRLPRPRPRPDTRPRP	f
RRIRFRPPRLPRPRPRPHSQPRP	f
RRIRLRPPRLPRPRPRPTNYPRP	f
RRIRERPPRLPRPRPRPSCFPRP	f
RRIRARPPRLPRPRPRPQQGPRP	t
RRIRFRPPRLPRPRPRPRVYPRP	f
RRIRKRPPRLPRPRPRPCTHPRP	f

###

- System: Escherichia coli TOP10
- experimental_protocol: shrunken log2 fold change of peptide-encoding DNA abundance (4.5 h post-induction vs induction); higher = less antimicrobial activity (less host growth inhibition)
- conditions: time post-induction: 4.5 h; library: site-saturation at positions 5, 18, 19, 20
Kindly note that classification relies on shrunken log2 fold change with these boundaries: class 0: < -0.06; class 1: ≥ -0.06 and < 0.2; class 2: ≥ 0.2

sequence_code	label
RRIRPRPPRLPRPRPRPAAQPRP	class 2
RRIRGRPPRLPRPRPRPIHHPRP	class 1
RRIRWRPPRLPRPRPRPWASPRP	class 1
RRIRWRPPRLPRPRPRPCANPRP	class 1
RRIRIRPPRLPRPRPRPRDPPRP	class 2
RRIRPRPPRLPRPRPRPIICPRP	class 0
RRIRTRPPRLPRPRPRPRHPPRP	class 2
RRIRYRPPRLPRPRPRPNEMPRP	class 1
RRIRQRPPRLPRPRPRPEEGPRP	class 1
RRIRWRPPRLPRPRPRPFAIPRP	class 1
RRIRTRPPRLPRPRPRPPGRPRP	class 2
RRIRTRPPRLPRPRPRPVPPPRP	class 2
RRIRDRPPRLPRPRPRPGQSPRP	class 1
RRIRIRPPRLPRPRPRPDSTPRP	class 1
RRIRGRPPRLPRPRPRPFVSPRP	class 0
RRIRERPPRLPRPRPRPPCAPRP	class 1
RRIRRRPPRLPRPRPRPKNKPRP	class 2
RRIRRRPPRLPRPRPRPEHDPRP	class 2
RRIRKRPPRLPRPRPRPHDPPRP	class 2
RRIRCRPPRLPRPRPRPLRYPRP	class 2
RRIRRRPPRLPRPRPRPKCMPRP	class 0
RRIRRRPPRLPRPRPRPYCRPRP	class 0
RRIRFRPPRLPRPRPRPICVPRP	class 0
RRIRRRPPRLPRPRPRPMMRPRP	class 2
RRIRHRPPRLPRPRPRPEWDPRP	class 1
RRIRTRPPRLPRPRPRPDDQPRP	class 1
RRIRGRPPRLPRPRPRPIEKPRP	class 2
RRIRKRPPRLPRPRPRPFITPRP	class 0
RRIRYRPPRLPRPRPRPACWPRP	class 2
RRIRWRPPRLPRPRPRPCELPRP	class 1
RRIRCRPPRLPRPRPRPQQCPRP	class 0
RRIRMRPPRLPRPRPRPCNDPRP	class 0
RRIRDRPPRLPRPRPRPALEPRP	class 2
RRIRMRPPRLPRPRPRPEMVPRP	class 1
RRIRGRPPRLPRPRPRPRGSPRP	class 2
RRIRGRPPRLPRPRPRPLVMPRP	class 2
RRIRFRPPRLPRPRPRPQRRPRP	class 0
RRIRHRPPRLPRPRPRPYIAPRP	class 0
RRIRTRPPRLPRPRPRPTMKPRP	class 0
RRIRFRPPRLPRPRPRPDMIPRP	class 0
RRIRSRPPRLPRPRPRPHFQPRP	class 0
RRIRQRPPRLPRPRPRPSYLPRP	class 0
RRIRWRPPRLPRPRPRPPKEPRP	class 2
RRIRARPPRLPRPRPRPKIMPRP	class 0
RRIRQRPPRLPRPRPRPDWHPRP	class 1
RRIRNRPPRLPRPRPRPPMLPRP	class 0

###

# shrunken log2 fold change per entry
- Tested on: Escherichia coli TOP10
- experimental_protocol: shrunken log2 fold change of peptide-encoding DNA abundance (4.5 h post-induction vs induction); higher = less antimicrobial activity (less host growth inhibition)
- conditions: time post-induction: 4.5 h; library: site-saturation at positions 5, 18, 19, 20

sequence_code	shrunken log2 fold change
RRIRCRPPRLPRPRPRPMTDPRP	-0.0858
RRIRDRPPRLPRPRPRPWCTPRP	0.107
RRIRIRPPRLPRPRPRPAWWPRP	0.0406

###

Listed sequences paired with reported shrunken log2 fold change
- Test system: Escherichia coli TOP10;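 note: peptides expressed intracellularly from a pBAD plasmid library in pooled LB shake-flask culture, induced with 0.3% L-arabinose, DNA abundance read by NGS, three biological replicates, DESeq2 with apeglm shrinkage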
- experimental_protocol: shrunken log2 fold change of peptide-encoding DNA abundance (4.5 h post-induction vs induction); higher = less antimicrobial activity (less host growth inhibition)
- conditions: time post-induction: 4.5 h; library: site-saturation at positions 5, 18, 19, 20

sequence_code	system_under_test	shrunken log2 fold change
RRIRHRPPRLPRPRPRPDEWPRP	Escherichia coli TOP10	-0.000921
RRIRIRPPRLPRPRPRPNREPRP	Escherichia coli TOP10	-0.0355
RRIRKRPPRLPRPRPRPFMDPRP	Escherichia coli TOP10	0.0834
RRIRLRPPRLPRPRPRPHGEPRP	Escherichia coli TOP10	0.191
RRIRQRPPRLPRPRPRPWTLPRP	Escherichia coli TOP10	-0.158
RRIRCRPPRLPRPRPRPIYAPRP	Escherichia coli TOP10	-0.281
RRIRRRPPRLPRPRPRPYDEPRP	Escherichia coli TOP10	-0.302
